B1: KRT34 (parent)
chain: PTVDLNQVLNETRSQYEALVETNR

# Variants of: B1
# MEASUREMENT_PROTOCOL: protein stability index of a GFP-peptide fusion (GPS, HEK-293T) (PSI 1-6); higher = more stable;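 note: lentivirally expressed fusions sorted by FACS into six bins by GFP to DsRed ratio, PSI derived from sequencing read proportions per bin multiplied by bin number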
# RECORDED_CONDITIONS: c terminus: a fixed tail appended
RECORDED_ENDPOINT: protein stability index

Solved cases (2 shown):
[[record]]
change = "E11R"
observed_measurement = 4.03

[[record]]
change = "L9H"
observed_measurement = 4.66


Please look at the items below and tell me protein stability index for each one, in order.
1. Q7Y
2. Q15K
3. N23I
4. Y16N
5. V20Q
6. V3R

**A:**
1. 3.65
2. 3.89
3. 2.79
4. 4.99
5. 4.5
6. 2.92
